- experimentNotes: self-splicing fitness, log relative to wild type (ln ratio); higher = more splicing; Tetrahymena group I intron in knt gene, E. coli kanamycin selection, DiMSum; sequences stand for … in CUCUCU…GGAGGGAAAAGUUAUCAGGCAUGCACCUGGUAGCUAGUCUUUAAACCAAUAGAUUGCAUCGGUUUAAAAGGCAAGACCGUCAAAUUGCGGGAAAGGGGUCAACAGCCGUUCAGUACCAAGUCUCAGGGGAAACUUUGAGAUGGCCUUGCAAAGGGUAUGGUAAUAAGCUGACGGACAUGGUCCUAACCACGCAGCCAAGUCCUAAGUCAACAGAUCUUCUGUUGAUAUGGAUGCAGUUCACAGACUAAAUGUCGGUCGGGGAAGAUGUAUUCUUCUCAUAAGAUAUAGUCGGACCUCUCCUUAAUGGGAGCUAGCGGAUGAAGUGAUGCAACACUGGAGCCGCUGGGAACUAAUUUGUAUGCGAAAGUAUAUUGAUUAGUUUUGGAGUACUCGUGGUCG;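 further: selection with 25 µg/mL kanamycin versus none on LB agar overnight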
- cond: 30 °C
Overview of reported self-splicing fitness (ln) across a group of sequences:
measuredProperty: self-splicing fitness (ln)

> print(dat)
                  chain            measuredproperty  observedvalue
1  CAUCAGCAAUAUUACGCCCA  self-splicing fitness (ln)           -2.9
2  AGCCAGCAAUAUUACGGACC  self-splicing fitness (ln)         -0.609
3  GUAUAGCAAUAUUACGGGUU  self-splicing fitness (ln)          -3.05
4  ACUUAGCAAUAUUACGGCGG  self-splicing fitness (ln)          -1.06
5  CUAAAGCAAUAUUACGCACA  self-splicing fitness (ln)          -2.11
6  GUAAAGCAAUAUUACGACAG  self-splicing fitness (ln)          -2.12
7  ACACAGCAAUAUUACGGGGC  self-splicing fitness (ln)           -2.8

###

- experimentNotes: self-splicing fitness, log relative to wild type (ln ratio); higher = more splicing; Tetrahymena group I intron in knt gene, E. coli kanamycin selection, DiMSum; sequences stand for … in CUCUCU…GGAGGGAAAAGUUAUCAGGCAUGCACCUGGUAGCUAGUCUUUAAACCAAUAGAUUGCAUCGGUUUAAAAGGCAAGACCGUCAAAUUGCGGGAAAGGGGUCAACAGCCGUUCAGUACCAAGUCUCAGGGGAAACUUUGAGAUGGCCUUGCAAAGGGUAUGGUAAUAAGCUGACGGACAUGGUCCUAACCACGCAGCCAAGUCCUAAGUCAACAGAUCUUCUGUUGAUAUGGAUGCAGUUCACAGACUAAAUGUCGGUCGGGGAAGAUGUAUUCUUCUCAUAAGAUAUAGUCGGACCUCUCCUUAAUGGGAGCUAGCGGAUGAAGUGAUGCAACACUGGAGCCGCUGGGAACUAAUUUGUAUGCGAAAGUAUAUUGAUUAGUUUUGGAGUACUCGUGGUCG
- cond: 37 °C
measuredProperty: self-splicing fitness (ln)

> print(dat)
                   chain  observedvalue
 1  UCCGAGCAAUAUUACGACUG          -1.76
 2  CUGAAGCAAUAUUACGGUCG          -0.32
 3  AAAUAGCAAUAUUACGGUAA           -1.5
 4  UAGGAGCAAUAUUACGUUAG          -2.71
 5  GCAGAGCAAUAUUACGUAAG          -1.88
 6  CUAAAGCAAUAUUACGUGAA          -3.36
 7  CCCCAGCAAUAUUACGCCGU          -2.23
 8  GACCAGCAAUAUUACGUGAA          0.524
 9  UGAAAGCAAUAUUACGCCAA         -0.806
10  CGUCAGCAAUAUUACGUCAA          -1.61
11  GUUAAGCAAUAUUACGCGUG          -0.78
12  UUGAAGCAAUAUUACGCAAC          -2.43
13  GAGAAGCAAUAUUACGCUAU          -1.31
14  AUAUAGCAAUAUUACGAUUA         -0.617
15  GGUUAGCAAUAUUACGGGUC         -0.805
16  UCAUAGCAAUAUUACGGUCG        -0.0517
17  AGCCAGCAAUAUUACGGAAA           -1.3
18  CGUCAGCAAUAUUACGUCAG          0.175
19  UAGGAGCAAUAUUACGUACA         -0.906
20  GCAAAGCAAUAUUACGUCAC          -2.56
21  GAUCAGCAAUAUUACGUAGA         -0.158
22  GGCAAGCAAUAUUACGGGGU         -0.776
23  GCCCAGCAAUAUUACGCGGG          -2.31
24  CAUUAGCAAUAUUACGAUAG         -0.688
25  ACCUAGCAAUAUUACGUACG          -1.02
26  AGCCAGCAAUAUUACGAGAC          -2.61
27  AUAAAGCAAUAUUACGACAA          0.621
28  AGGCAGCAAUAUUACGAACU          0.719
29  GUUUAGCAAUAUUACGUGUA         -0.725
30  GUCUAGCAAUAUUACGCGAU          -2.29
31  ACACAGCAAUAUUACGGUAA          -1.18
32  AGCUAGCAAUAUUACGUCCU          0.188
33  AAUCAGCAAUAUUACGAUAA        -0.0641
34  CAGCAGCAAUAUUACGAGCA          -1.04

###

- experimentNotes: self-splicing fitness, log relative to wild type (ln ratio); higher = more splicing; Tetrahymena group I intron in knt gene, E. coli kanamycin selection, DiMSum; sequences stand for … in CUCUCU…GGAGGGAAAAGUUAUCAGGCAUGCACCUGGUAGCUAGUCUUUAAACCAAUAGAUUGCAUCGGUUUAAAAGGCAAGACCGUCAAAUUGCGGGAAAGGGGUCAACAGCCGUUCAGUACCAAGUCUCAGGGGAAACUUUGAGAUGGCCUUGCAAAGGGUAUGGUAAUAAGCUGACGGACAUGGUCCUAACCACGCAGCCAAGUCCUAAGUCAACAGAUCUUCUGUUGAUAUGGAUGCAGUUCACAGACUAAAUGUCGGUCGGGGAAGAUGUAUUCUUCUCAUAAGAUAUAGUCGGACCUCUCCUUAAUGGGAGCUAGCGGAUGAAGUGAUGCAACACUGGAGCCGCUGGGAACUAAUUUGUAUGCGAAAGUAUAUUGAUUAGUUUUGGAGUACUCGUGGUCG
- cond: 37 °C
self-splicing fitness (ln) class ranges: low = under -2, middle = from -2 up to -1, high = -1 and over

> print(dat)
                   chain  category
 1  GGGCAGCAAUAUUACGACCG      high
 2  GGAUAGCAAUAUUACGAGGA    middle
 3  UUUCAGCAAUAUUACGUCAU       low
 4  UGGAAGCAAUAUUACGGUCC    middle
 5  GGCUAGCAAUAUUACGAACG      high
 6  AGAGAGCAAUAUUACGAUCA    middle
 7  CUACAGCAAUAUUACGAUCA    middle
 8  UUGUAGCAAUAUUACGUAGC       low
 9  GACGAGCAAUAUUACGUAUG    middle
10  UGACAGCAAUAUUACGAGUC       low
11  UCUUAGCAAUAUUACGCAUU       low
12  AAAUAGCAAUAUUACGGUUC      high

###

- experimentNotes: self-splicing fitness, log relative to wild type (ln ratio); higher = more splicing; Tetrahymena group I intron in knt gene, E. coli kanamycin selection, DiMSum; sequences stand for … in CUCUCU…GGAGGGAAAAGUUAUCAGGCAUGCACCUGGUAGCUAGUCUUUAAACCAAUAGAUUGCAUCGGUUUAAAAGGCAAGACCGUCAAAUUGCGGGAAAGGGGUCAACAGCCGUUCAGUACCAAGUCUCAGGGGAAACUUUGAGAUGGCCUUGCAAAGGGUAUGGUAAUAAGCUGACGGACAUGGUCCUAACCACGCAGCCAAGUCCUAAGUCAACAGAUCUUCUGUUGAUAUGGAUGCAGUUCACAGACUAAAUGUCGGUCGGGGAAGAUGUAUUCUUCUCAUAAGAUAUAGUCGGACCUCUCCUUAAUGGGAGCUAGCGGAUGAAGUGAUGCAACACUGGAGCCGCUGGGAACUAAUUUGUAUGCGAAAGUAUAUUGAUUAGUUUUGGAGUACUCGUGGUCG
- cond: 30 °C
Cut-off -3 on self-splicing fitness (ln), inclusive. At or above means Y; below means N.

> print(dat)
                   chain  category
 1  AUAGAGCAAUAUUACGGUGC         Y
 2  GCUCAGCAAUAUUACGGUUA         Y
 3  UUACAGCAAUAUUACGCCUG         Y
 4  ACAUAGCAAUAUUACGAAAC         N
 5  GGGUAGCAAUAUUACGAUUG         Y
 6  AAACAGCAAUAUUACGGACU         Y
 7  CCGAAGCAAUAUUACGCUAA         N
 8  UGUGAGCAAUAUUACGCCUG         Y
 9  CGUAAGCAAUAUUACGUCCA         Y
10  GAUCAGCAAUAUUACGCCGC         Y
11  GGUAAGCAAUAUUACGUUCC         Y
12  UAACAGCAAUAUUACGACAU         Y
13  GCGAAGCAAUAUUACGUAAU         Y
14  AGUAAGCAAUAUUACGGGUU         Y
15  GUUUAGCAAUAUUACGUAGA         Y
16  AGCGAGCAAUAUUACGCUCA         Y
17  CCCAAGCAAUAUUACGCCGC         Y
18  GCCGAGCAAUAUUACGUCCG         N
19  AUCAAGCAAUAUUACGCACC         Y
20  CCCGAGCAAUAUUACGGAAG         N
21  ACAGAGCAAUAUUACGCGCG         Y
22  CAUAAGCAAUAUUACGCUCC         Y
23  CGCGAGCAAUAUUACGCGUA         Y
24  CAUAAGCAAUAUUACGGUUU         N
25  AACCAGCAAUAUUACGUGCA         Y
26  UAGCAGCAAUAUUACGCCAU         N
27  GGCUAGCAAUAUUACGCAAC         Y
28  UUAGAGCAAUAUUACGUAUG         Y
29  UAUAAGCAAUAUUACGACUU         Y
30  AAGUAGCAAUAUUACGUUUA         Y
31  GUAUAGCAAUAUUACGAUCG         Y
32  GUCAAGCAAUAUUACGUCUC         Y
33  UUAGAGCAAUAUUACGGUUC         Y
34  CGAUAGCAAUAUUACGUAUG         Y
35  CCGCAGCAAUAUUACGGCAG         Y
36  AUUUAGCAAUAUUACGUACA         Y
37  AGGUAGCAAUAUUACGCUUC         N
38  CGAAAGCAAUAUUACGACAU         Y
39  CACUAGCAAUAUUACGCGGG         Y
40  CUCAAGCAAUAUUACGAUUA         N
41  CCGAAGCAAUAUUACGCAUA         Y
42  UUAGAGCAAUAUUACGGAGG         Y
43  GCCAAGCAAUAUUACGCUUU         Y
44  GAGCAGCAAUAUUACGGUCA         Y
45  GAAAAGCAAUAUUACGGGGU         N
46  GCCCAGCAAUAUUACGAGUU         Y
47  GGAUAGCAAUAUUACGUACU         Y
48  UAGGAGCAAUAUUACGGACU         N
49  UACAAGCAAUAUUACGGUAC         N
50  GCCGAGCAAUAUUACGAAUG         N
51  UAAGAGCAAUAUUACGAAUC         Y
52  UACGAGCAAUAUUACGAAGU         N
53  AAGUAGCAAUAUUACGUGUA         Y

Source of measurements: the supplement of paper PMC7877785
